Listed molecules paired with reported pIC50
Target: cIAP1-BIR3 (Homo sapiens (Human))
Sequence (Q13490 253-363): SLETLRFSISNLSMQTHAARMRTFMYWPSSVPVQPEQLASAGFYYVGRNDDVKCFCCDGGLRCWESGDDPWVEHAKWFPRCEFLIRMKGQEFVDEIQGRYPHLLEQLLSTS
Assay: BIR binding assay (FRET competition), cIAP1 BIR3
pIC50: −log10 of the molar value.

>  <smiles-str>
C[C@@H]1CN(CC(=O)N2CC(C)(C)c3ncc(Oc4ccc(F)cc4)cc32)[C@@H](CN2CCO[C@H](COc3cccc(OC[C@@H]4CN(C[C@H]5CN[C@H](C)CN5CC(=O)N5CC(C)(C)c6ncc(Oc7ccc(F)cc7)cc65)CCO4)c3)C2)CN1

>  <target-system>
cIAP1-BIR3 (Homo sapiens (Human))

>  <pIC50>
7.50 to 7.80

$$$$
>  <smiles-str>
C[C@@H]1CN(CC(=O)N2CC(C)(C)c3[nH]c(=O)c(Cc4ccc(F)cc4)cc32)[C@@H](CN2CCN(C(=O)Cc3ccccc3CC(=O)N3CCN(C[C@H]4CN[C@H](C)CN4CC(=O)N4CC(C)(C)c5[nH]c(=O)c(Cc6ccc(F)cc6)cc54)[C@H](C)C3)C[C@H]2C)CN1

>  <target-system>
cIAP1-BIR3 (Homo sapiens (Human))

>  <pIC50>
7.50 to 7.80

$$$$
>  <smiles-str>
C[C@@H]1CN(CC(=O)N2CC(C)(C)c3[nH]c(=O)c(Cc4ccc(F)cc4)cc32)[C@@H](CN2CCN(C(=O)CN(C)CC(=O)N3CCN(C[C@H]4CN[C@H](C)CN4CC(=O)N4CC(C)(C)c5[nH]c(=O)c(Cc6ccc(F)cc6)cc54)[C@H](C)C3)C[C@H]2C)CN1

>  <target-system>
cIAP1-BIR3 (Homo sapiens (Human))

>  <pIC50>
8.10 to 8.86

$$$$
>  <smiles-str>
C[C@@H]1CN(CC(=O)N2CC(C)(C)c3[nH]c(=O)c(Cc4ccc(F)cc4)cc32)[C@@H](CN2CCN(C(=O)COCCOCC(=O)N3CCN(C[C@H]4CN[C@H](C)CN4CC(=O)N4CC(C)(C)c5[nH]c(=O)c(Cc6ccc(F)cc6)cc54)[C@H](C)C3)C[C@H]2C)CN1

>  <target-system>
cIAP1-BIR3 (Homo sapiens (Human))

>  <pIC50>
6.30 to 7.50

$$$$
>  <smiles-str>
C[C@@H]1CN(CC(=O)N2CC(C)(C)c3[nH]c(=O)c(Cc4ccc(F)cc4)cc32)[C@@H](CN2CCO[C@H](COc3cccc(OC[C@@H]4CN(C[C@H]5CN[C@H](C)CN5CC(=O)N5CC(C)(C)c6[nH]c(=O)c(Cc7ccc(F)cc7)cc65)CCO4)c3F)C2)CN1

>  <target-system>
cIAP1-BIR3 (Homo sapiens (Human))

>  <pIC50>
7.80 to 8.10

$$$$
>  <smiles-str>
C[C@@H]1CN(CC(=O)N2CC(C)(C)c3[nH]c(=O)c(Cc4ccc(F)cc4)cc32)[C@@H](CN2CCC(COc3cccc(OCC4CCN(C[C@H]5CN[C@H](C)CN5CC(=O)N5CC(C)(C)c6[nH]c(=O)c(Cc7ccc(F)cc7)cc65)CC4)c3)CC2)CN1

>  <target-system>
cIAP1-BIR3 (Homo sapiens (Human))

>  <pIC50>
7.80 to 8.10

$$$$
>  <smiles-str>
C[C@@H]1CN(CC(=O)N2CC(C)(C)c3[nH]c(=O)c(Cc4ccc(F)cc4)cc32)[C@@H](CN2CCN(Cc3cn(CC(=O)N4CCN(C[C@H]5CN[C@H](C)CN5CC(=O)N5CC(C)(C)c6[nH]c(=O)c(Cc7ccc(F)cc7)cc65)[C@H](C)C4)nn3)C[C@H]2C)CN1

>  <target-system>
cIAP1-BIR3 (Homo sapiens (Human))

>  <pIC50>
8.10 to 8.86

$$$$

###

Listed compounds paired with reported pIC50
Target: XIAP-BIR3 (Homo sapiens (Human))
Sequence (P98170 241-356): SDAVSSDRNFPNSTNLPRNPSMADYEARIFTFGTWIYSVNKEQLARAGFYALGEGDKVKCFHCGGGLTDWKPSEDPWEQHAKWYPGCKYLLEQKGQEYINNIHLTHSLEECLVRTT
Assay: BIR binding assay (FRET competition), XIAP BIR3
pIC50: −log10 of the molar value.
endpoint-label: pIC50

>  <smiles-str>
C[C@@H]1CN(CC(=O)N2CC(C)(C)c3[nH]c(=O)c(Cc4ccc(F)cc4)cc32)[C@@H](CN2CCO[C@@H](COc3cccc(OC[C@H]4CN(C[C@H]5CN[C@H](C)CN5CC(=O)N5CC(C)(C)c6[nH]c(=O)c(Cc7ccc(F)cc7)cc65)CCO4)c3)C2)CN1

>  <experimental-value>
7.50 to 7.80

$$$$
>  <smiles-str>
C[C@@H]1CN(CC(=O)N2CC(C)(C)c3ncc(Cc4ccc(Br)cc4)cc32)[C@@H](CN2CCO[C@H](COc3cccc(OC[C@@H]4CN(C[C@H]5CN[C@H](C)CN5CC(=O)N5CC(C)(C)c6ncc(Cc7ccc(Br)cc7)cc65)CCO4)c3)C2)CN1

>  <experimental-value>
6.30 to 7.50

$$$$
>  <smiles-str>
C[C@@H]1CN(CC(=O)N2CC(C)(C)c3[nH]c(=O)c(Cc4ccc(F)cc4)cc32)[C@@H](CN2CCO[C@H](COc3ccccc3-c3ccccc3OC[C@@H]3CN(C[C@H]4CN[C@H](C)CN4CC(=O)N4CC(C)(C)c5[nH]c(=O)c(Cc6ccc(F)cc6)cc54)CCO3)C2)CN1

>  <experimental-value>
7.80 to 8.10

$$$$
>  <smiles-str>
C[C@@H]1CN(CC(=O)N2CC(C)(C)c3[nH]c(=O)c(Oc4ccccc4)cc32)[C@@H](CN2CCO[C@H](C(=O)NCc3ccc(CNC(=O)[C@@H]4CN(C[C@H]5CN[C@H](C)CN5CC(=O)N5CC(C)(C)c6[nH]c(=O)c(Oc7ccccc7)cc65)CCO4)cc3)C2)CN1

>  <experimental-value>
6.30 to 7.50

$$$$

###

System: Jurkat HIV-luciferase clones
Assay: Jurkat latency reversal assay
Assay type: cell-based
Settings: Homo sapiens, 48 h; Jurkat latency reversal assay potency; read-out: Jurkat pEC50 (converted)

>  <smiles-str>
C[C@@H]1CN(CC(=O)N2CC(C)(C)c3[nH]c(=O)c(Cc4ccc(F)cc4)cc32)[C@@H](CN2CCO[C@@H](COCCCCOC[C@H]3CN(C[C@H]4CN[C@H](C)CN4CC(=O)N4CC(C)(C)c5[nH]c(=O)c(Cc6ccc(F)cc6)cc54)CCO3)C2)CN1

>  <target-system>
Jurkat HIV-luciferase clones

>  <EC50>
0.49 to 12.6 nM

$$$$
>  <smiles-str>
C[C@@H]1CN(CC(=O)N2CC(C)(C)c3[nH]c(=O)c(Cc4ccc(F)cc4)cc32)[C@@H](CN2CCC(COc3cccc(OCC4CCN(C[C@H]5CN[C@H](C)CN5CC(=O)N5CC(C)(C)c6[nH]c(=O)c(Cc7ccc(F)cc7)cc65)CC4)c3)CC2)CN1

>  <target-system>
Jurkat HIV-luciferase clones

>  <EC50>
12.6 to 63.1 nM

$$$$
>  <smiles-str>
C[C@@H]1CN(CC(=O)N2CC(C)(C)c3[nH]c(=O)c(Cc4ccc(F)cc4)cc32)[C@@H](CN2CCO[C@H](C(=O)NCCCCCCCCNC(=O)[C@@H]3CN(C[C@H]4CN[C@H](C)CN4CC(=O)N4CC(C)(C)c5[nH]c(=O)c(Cc6ccc(F)cc6)cc54)CCO3)C2)CN1

>  <target-system>
Jurkat HIV-luciferase clones

>  <EC50>
12.6 to 63.1 nM

$$$$
>  <smiles-str>
C[C@@H]1CN(CC(=O)N2CC(C)(C)c3[nH]c(=O)c(Cc4ccc(F)cc4)cc32)[C@@H](CN2CCO[C@H](C(=O)NCC(=O)N3CCN(C[C@H]4CN[C@H](C)CN4CC(=O)N4CC(C)(C)c5[nH]c(=O)c(Cc6ccc(F)cc6)cc54)[C@H](C)C3)C2)CN1

>  <target-system>
Jurkat HIV-luciferase clones

>  <EC50>
63.1 to 316 nM

$$$$
>  <smiles-str>
C[C@@H]1CN(CC(=O)N2CC(C)(C)c3[nH]c(=O)c(Cc4cc(F)c(F)cc4F)cc32)[C@@H](CN2CCO[C@H](C(=O)NCc3ccc(CNC(=O)[C@@H]4CN(C[C@H]5CN[C@H](C)CN5CC(=O)N5CC(C)(C)c6[nH]c(=O)c(Cc7cc(F)c(F)cc7F)cc65)CCO4)cc3)C2)CN1

>  <target-system>
Jurkat HIV-luciferase clones

>  <EC50>
0.49 to 12.6 nM

$$$$

###

Target: cIAP1-BIR3 (Homo sapiens (Human))
Experiment: BIR binding assay (FRET competition), cIAP1 BIR3
pIC50: −log10 of the molar value.
Listed compounds paired with reported pIC50
endpoint-label: pIC50

>  <smiles-str>
C[C@@H]1CN(CC(=O)N2CC(C)(C)c3[nH]c(=O)c(Cc4ccc(F)cc4)cc32)[C@@H](CN2CCN(CCc3cn(CCCCC(=O)N4CCN(C[C@H]5CN[C@H](C)CN5CC(=O)N5CC(C)(C)c6[nH]c(=O)c(Cc7ccc(F)cc7)cc65)[C@H](C)C4)nn3)C[C@H]2C)CN1

>  <endpoint-label>
pIC50

>  <experimental-value>
7.80 to 8.10

$$$$
>  <smiles-str>
C[C@@H]1CN(CC(=O)N2CC(C)(C)c3[nH]c(=O)c(Cc4ccc(F)cc4)cc32)[C@@H](CN2CCO[C@H](COc3cccc(OC[C@@H]4CN(C[C@H]5CN[C@H](C)CN5CC(=O)N5CC(C)(C)c6[nH]c(=O)c(Cc7ccc(F)cc7)cc65)CCO4)c3Br)C2)CN1

>  <endpoint-label>
pIC50

>  <experimental-value>
7.80 to 8.10

$$$$
>  <smiles-str>
COc1cc(F)ccc1Cc1cnc2c(c1)N(C(=O)CN1C[C@@H](C)NC[C@@H]1CN1CCO[C@H](COc3cccc(OC[C@@H]4CN(C[C@H]5CN[C@H](C)CN5CC(=O)N5CC(C)(C)c6ncc(Cc7ccc(F)cc7OC)cc65)CCO4)c3)C1)CC2(C)C

>  <endpoint-label>
pIC50

>  <experimental-value>
7.50 to 7.80

$$$$
>  <smiles-str>
C[C@@H]1CN(CC(=O)N2CC(C)(C)c3c2cc(Cc2ccc(F)cc2)c(=O)n3C)[C@@H](CN2CCO[C@H](COCc3ccc(COC[C@@H]4CN(C[C@H]5CN[C@H](C)CN5CC(=O)N5CC(C)(C)c6c5cc(Cc5ccc(F)cc5)c(=O)n6C)CCO4)cc3)C2)CN1

>  <endpoint-label>
pIC50

>  <experimental-value>
7.50 to 7.80

$$$$
